Target: Norepinephrine transporter (Rattus norvegicus, UniProt Q9WTR4)
Sequence (Q9WTR4 whole entry): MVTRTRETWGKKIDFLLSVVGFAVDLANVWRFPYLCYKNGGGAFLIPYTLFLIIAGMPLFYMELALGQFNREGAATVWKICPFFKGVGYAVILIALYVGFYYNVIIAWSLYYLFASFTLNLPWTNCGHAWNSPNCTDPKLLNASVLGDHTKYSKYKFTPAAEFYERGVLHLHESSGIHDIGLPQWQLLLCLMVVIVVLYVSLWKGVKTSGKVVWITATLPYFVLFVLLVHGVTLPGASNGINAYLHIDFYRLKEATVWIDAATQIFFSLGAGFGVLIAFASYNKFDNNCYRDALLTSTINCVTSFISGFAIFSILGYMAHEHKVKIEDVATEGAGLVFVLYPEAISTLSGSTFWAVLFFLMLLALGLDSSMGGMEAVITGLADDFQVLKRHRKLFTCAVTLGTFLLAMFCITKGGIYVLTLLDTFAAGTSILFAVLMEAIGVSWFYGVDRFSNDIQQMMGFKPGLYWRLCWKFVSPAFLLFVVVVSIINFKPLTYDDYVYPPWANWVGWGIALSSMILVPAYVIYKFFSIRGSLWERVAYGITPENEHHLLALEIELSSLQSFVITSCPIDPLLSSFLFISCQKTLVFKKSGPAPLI
Experiment: Displacement of [3H]nisoxetine from NET in rat cortical membranes
pIC50: −log10 of the molar value.
Assay Endpoint: pIC50

Some solved entries appear below for comparison.
| Compound | Assayed System | Recorded Result |
| --- | --- | --- |
| CC(C)N1CCN(C(CN2CCN(CCCc3ccccc3-c3ccccc3)CC2)c2ccc(F)cc2)CC1 (racemic) | Norepinephrine transporter (Rattus norvegicus, UniProt Q9WTR4) | 6.17 |
| CC(C)N1CCN(C(CN2CCN(CCCc3ccccc3-c3ccc(F)cc3)CC2)c2ccc(F)cc2)CC1 (racemic) | Norepinephrine transporter (Rattus norvegicus, UniProt Q9WTR4) | 6.54 |
| CC(C)N1CCN(C(CN2CCN(CCCc3ccccc3-c3cccc(F)c3)CC2)c2ccc(F)cc2)CC1 (racemic) | Norepinephrine transporter (Rattus norvegicus, UniProt Q9WTR4) | 6.65 |
| CC(C)N1CCN(C(CN2CCN(CCCc3cccc(F)c3-c3ccccc3)CC2)c2ccc(F)cc2)CC1 (racemic) | Norepinephrine transporter (Rattus norvegicus, UniProt Q9WTR4) | 5.55 |
| Cc1cccc(-c2ccccc2)c1CCCN1CCN(CC(c2ccc(F)cc2)N2CCN(C(C)C)CC2)CC1 (racemic) | Norepinephrine transporter (Rattus norvegicus, UniProt Q9WTR4) | 5.62 |
| CC(C)N1CCN(C(CN2CCN(CCCc3c(Cl)cccc3-c3ccccc3)CC2)c2ccc(F)cc2)CC1 (racemic) | Norepinephrine transporter (Rattus norvegicus, UniProt Q9WTR4) | 5.75 |
| CC(C)N1CCN(C(CN2CCN(CCCc3cc(F)ccc3-c3ccccc3)CC2)c2ccc(F)cc2)CC1 (racemic) | Norepinephrine transporter (Rattus norvegicus, UniProt Q9WTR4) | 6.43 |

1: CC(C)N1CCN(C(CN2CCN(CCCc3c(F)cccc3-c3ccccc3)CC2)c2ccc(F)cc2)CC1 (racemic)
2: CC(C)N1CCN(C(CN2CCN(CCCc3ccc(F)cc3-c3ccccc3)CC2)c2ccc(F)cc2)CC1 (racemic)
Endpoint returns whichever of 1 and 2 has the numerically higher pIC50. State the label of the item chosen.
1
(1: 6.69, 2: 5.73)
